settings: in methanol, 288.15 K
Measure name: solubility (mole fraction)
One number for each entry.

[in] Dear colleague, please send me the reported solubility (mole fraction) for c1ccc2c(c1)Cc1ccccc1-2 when you can.
[out] 0.00275

###

conditions: in ethyl formate, 308.15 K
Measure name: solubility (mole fraction)
Give bare numbers.

[in] Read the entry c1ccc2c(c1)Cc1ccccc1-2 and write its reported solubility (mole fraction).
[out] 0.0933

###

details: in methanol, 298.15 K
Measure name: solubility (mole fraction)
Give bare numbers.

[in] Indicate the recorded solubility (mole fraction) value for this compound: c1ccc2c(c1)Cc1ccccc1-2
[out] 0.00395

###

details: in n-butyl acetate, 318.15 K
Measure name: solubility (mole fraction)
One number for each entry.

[in] Answer with the recorded solubility (mole fraction) of c1ccc2c(c1)Cc1ccccc1-2 only.
[out] 0.19

###

conditions: in n-propyl acetate, 283.15 K
Measure name: solubility (mole fraction)

[in] Find the measured solubility (mole fraction) of c1ccc2c(c1)Cc1ccccc1-2 and report it.
[out] 0.0671

###

conditions: in ethyl acetate, 303.15 K
Measure name: solubility (mole fraction)
Answers are plain numbers.

[in] Identify the reported solubility (mole fraction) for the following entry. c1ccc2c(c1)Cc1ccccc1-2
[out] 0.102
